System: DLK;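 also: KINOMEscan kinase panel screen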
Construct: gene MAP3K12
condition: concentration: 1 μM, replicates: in singlicate; n = 1
I would appreciate it if you labelled entries TRUE when %Inh is 20% or higher, otherwise FALSE.

Cc1ccc(C)c(NC(=O)NC2CCN(c3ccnc(Nc4ccc(F)cc4)n3)C2)c1 (centres unmarked) :: FALSE
FC(F)(F)c1ccc(/C=C/c2cncnc2Nc2ccc3[nH]c(Cc4ccccc4)nc3c2)cc1 :: FALSE

Now for a further compound.
Query block: Given the entry Nc1ncc(-c2ccc3nccc(-c4ccncc4)c3c2)cc1S(=O)(=O)N1CCOCC1 , answer whether its %Inh meets or surpasses 20%.
Result block: TRUE

Reference source for all entries: paper PMC5540273
